target: T1, HLA-A*0301 (purified HLA class I molecule) (human); assay: inhibition of 125I probe peptide binding to purified HLA; ratio to standard peptide
T1 construct: also called A3
Please go through the items and note down their relative binding ratio.

Some binders with known relative binding ratio results, for comparison:
GLPREYVNAR (also called Her2/neu.549 (10-mer)) [HER2/neu peptide, position 549, 10 amino acids]: 0.0002 ratio (IC50 standard / IC50 test)
GILIKRRQQK (also called Her2/neu.672 (10-mer)) [HER2/neu peptide, position 672, 10 amino acids]: 0.015 ratio (IC50 standard / IC50 test)
GTQRCEKCSK (also called Her2/neu.327 (10-mer)) [HER2/neu peptide, position 327, 10 amino acids]: 0.021 ratio (IC50 standard / IC50 test)
DLSYMPIWK (also called Her2/neu.607 (9-mer)) [HER2/neu peptide, position 607, 9 amino acids]: 0.0005 ratio (IC50 standard / IC50 test)
CVNCSQFLR (also called Her2/neu.528) [HER2/neu peptide, position 528, 9 amino acids]: 0.0015 ratio (IC50 standard / IC50 test)

Each of the following entries comes with a recorded value; kindly state relative binding ratio for each.
1. EVTAEDGTQR (also called Her2/neu.321 (10-mer)) [HER2/neu peptide, position 321, 10 amino acids]
2. GLACHQLCAR (also called Her2/neu.508 (10-mer)) [HER2/neu peptide, position 508, 10 amino acids]
3. ALTLIDTNR (also called Her2/neu.180 (9-mer)) [HER2/neu peptide, position 180, 9 amino acids]

OUTPUT:
1. 0.0002 ratio (IC50 standard / IC50 test)
2. 0.011 ratio (IC50 standard / IC50 test)
3. 0.0004 ratio (IC50 standard / IC50 test)
